Data provenance: the supplement of paper PMC9170038

Tested on: MS2 coat protein
ASSAY_TEXT: apparent KD of MS2 coat protein; higher = weaker reporter binding
APPLIED_CONDITIONS: Eterna round: R101; input ligand: FMN 200 uM
ENDPOINT: apparent KD of MS2 coat protein

Some sequences with known apparent KD of MS2 coat protein results, for comparison:
UUUUUUUUUUUUUACGCUUUGCGACGAGAAGGUACACAUGAGGAUCACCCAUGUCGAUUGGGAGGUAAGGAUAUUGGAUUGCGU [Inverted Small Loop Same State NG 3 Solution, Uracil-heavy] (puzzle (switch architecture): Inverted Small Loop Same State NG 3)    0.483 nM
UAAAUAAAUCCUAGAGGAUCACCCUAGGAUAUCACCGUCGAGGUGCCAUAAUGGCACCUCGACGGUGAGAAGGAGGGUAAUAAA [#SharedSequence - SLExNG3: 1-1] (puzzle (switch architecture): Small Loop Exclusion NG 3)    29.3 nM
GGUGUUAACACAGGAUAUCUGCGUAAACAGCGCGGAGAAGGGUGGGUGACCAAGGACACAUGAGGAUCACCCAUGUACCCUUAA [Timadier] (puzzle (switch architecture): Same State NG 1)    184 nM
UAAAUAAAUCCUAGAGGAUCACCCUAGGAUAUGAGGCUGCACCUCGGAUAAUCCGAGGUGCAGCCUCAGAAGGAGGAAAAUAAA [#SharedSequence - SLExNG3: 4-2] (puzzle (switch architecture): Small Loop Exclusion NG 3)    7.71 nM
GUCAGCUCGUGAGGAUAUACAUCACUGCUUCGGCAGUGUAUUAAGAUAACAUGAGGAUCACCCAUGUAGAAGGCACGAGCUGAU [#MS2NeighbourBaseDeletion - ENG2/2-A2] (puzzle (switch architecture): Exclusion NG 2)    8.5 nM
GUCACGGUUAAUUCCGUGACGCGCAAACCUUGAGGAUCACCCAAGGAUAUCGACGUCAAUGACGUCGAGAAGGUGGUUGAGCGC [#SharedSequence] (puzzle (switch architecture): Exclusion NG 3)    95.6 nM

Incoming: Notebook: pull reported apparent KD of MS2 coat protein for MS2 coat protein, entry AUCAGCUCGUCAGGAUAUACGUCACUGCGUCAGCAGUGUGGUAAGAUCACAUGAGGAUCACCCAUGUAGAAGGGACGAGCUGAU [#MiniMS2Turnoff - Ex NG2 #82] (puzzle (switch architecture): Exclusion NG 2)
Outgoing: 273 nM

====

Tested on: MS2 coat protein
ASSAY_TEXT: apparent KD of MS2 coat protein; higher = weaker reporter binding
APPLIED_CONDITIONS: Eterna round: R107; input ligand: none
Threshold rule: apparent KD of MS2 coat protein greater than or equal to 70 nM is YES; below that, NO.

For orientation, consider the following solved cases.
GGCAGUCAUAGGAGGGCAAAUAUACUCGAAGGAGCGUCAUAGUAGGCAGGUAGGUCGCGAGACAUGAGGAUCACCCAUGUAGAGA [wwzmullin]    NO
UAGACGGCCGGAAGGAGCGGUACAUGAGGAUCACCCAUGUAUCCCUGGGCAUCCGUAGUGUGCCAGGUAGGUCGCCGGUUGCGGG [XArg-B21]    NO
UGUAUGUGAUCUGAUACCAGCGAUGAUAACCUGAGGAUCACCCUGGUAAGGCGAAAGCCUCGCCCUUGGCAGCAGAUCGCAUACU    YES
ACAUGAGGAUCACCCAUGUAUUACCGGGAAGGAGCGGCCGCAAGGCCAGGUAGGUCGCUCGGUGUCGUGCUGUAAAGCACGACAA [#1 Same State - Arginine A Attempt #29 (HarryS)]    NO
AAAGGUCGCAAUAAAUCUCCUACAUGUGAAGGAGCGCGCGAAAGCGCAGGUAGGUCGCACAUGAGGAUCACCCAUGUGAGCGACC [MAT - Exclusion Arginine A - Mod of Eli - D3]    NO
GGACCAUGGCGCGAUACCAGCUUGAGUGUACUGGCCAGGUACAUGAGGAUCACCCAUGUAAGCCCUUGGCAGCGCGCCAUGGUCC [#1 Exclusion - Theophylline B Attempt #24 (HarryS)]    NO
AGGACCAGGAACAUGGGUGAACUGGUCCAACGAGGACCGGUACGGCCGCCACUCGAAUAAACAUGAGGAUCACCCAUGUAAUAAU [T''-M-T'-T-MS2]    YES
AACAUGAGGAUCACCCAUGUUUGCUAUGAAGGAGCGUCGGAAAUGACAGGUAGGUCGCAUGGUAGACCGAGUAUUAUCUGUAUGG [EAA NP+V+V2 #11]    NO

Incoming: Confirm if apparent KD of MS2 coat protein reported for the sequence ACCUCAUGUAGAAGGAGCGUCAGAAGCUACAGACAUGAGGAUCACCCAUGUUAGUUGAUCUGACAGGUAGGUCGCUACAGCAGGA [#23 Same State - Arginine B] is 70 nM or above.
Outgoing: NO

Incoming: Also CUAUGGAUAAGAAGGAGCGUCGAAAAUGGGUAAACAUGAGGAUCACCCAUGUAAAGGGAACGACAGGUAGGUCGCUUAUUUAUAG [AstromonsSSArgB#7] ?
Outgoing: YES

Incoming: Let us now turn to CUUGUUUAUGGAAGGAGCGCGAUUACAUAACAUGAGGAUCACCCAUGUAAGAAAUUAUUCAUGCAGGUAGGUCGCCAUGGGUGGG [Same State Arginine B GF7]
Outgoing: YES

Incoming: Field entry: AGCAGAUCCCAGCGAAAGCUGGGAUCUGCACGAGGACCGGUACGGCCGCCACUCGAGGACAUGAGGAUCACCCAUGUACCGGUCA [Glorfindel]
Outgoing: YES

====

Tested on: K4 kissing-loop RNA reporter;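 note: bound reporter read as fluorescence of individual clusters on recovered sequencing chips by microscopy, with normalized cluster intensities fitted with a binding model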
ASSAY_TEXT: apparent KD of K4 kissing-loop reporter; higher = weaker reporter binding
APPLIED_CONDITIONS: Eterna round: R107; input ligand: arginine 13.2 mM
ENDPOINT: apparent KD of K4 kissing-loop reporter

AAACCCAGUGAUGUUGGGAAUCAGUUGAGGGAGGAUAUUGGUAAUACAAGAAGGCCCGGCUGCGGGUGAUGUUCGCAUUAGGGCC [Exclusion FMN A GF17]    157 nM
AUUCACCUGUCGGCCGCCACUGCGUUAGCAGUAUCGGGCAGAAACUUCGCAGUGAUGUUGCGACUCAGGACCGGGACGUUGAGGA [theeternabot_exclusion_KL_Trp_B_29]    406 nM
AAGUCAUAGGCAGGAUAUGCAUUGUAAUAAGGCAAUAUAUACGUAUAGAGUGAUGUUUUGUACCAGGCAGAAGGGCUACAUCAGU [FMN B Excl V10 (+5A/U)]    383 nM
GCAGUGAUGUUGCGAAUCGGCCAUGAUGCAGAGGAUAUCGUGCCUUCGAGAAGGUUGUAUAGAGGAUACGAUACUAUUAAUGACG [Same State FMN A GF 6]    356 nM
AGAUGACACGGAGGAUAUCCUAAUAUGGGUGAUGUUAGCGAUGUUGAAGGUGUAGUGAUGUUAUGCGGAGAAGGCCGUGUUGUUU [BDazzled - #22 - Exc. FMN B]    85.6 nM

Moving on to another sequence below.
Incoming: Which apparent KD of K4 kissing-loop reporter reading was recorded for the sequence UCGAAAUGCGACUCCUAGUUACACCGGGAAGGAGCGUGGAUAACCGCAGGUAGGUCGCCCGGAAGCCGGACCAGUGAUGUUGGUC [Exclusion Arginine A Gf 28] ?
Outgoing: 177 nM

====

Catalogue of apparent KD of MS2 coat protein values
Tested on: MS2 coat protein
ASSAY_TEXT: apparent KD of MS2 coat protein; designed switch direction (-1 OFF switch, 1 ON switch): 1; higher = weaker reporter binding
APPLIED_CONDITIONS: input ligand: microRNA oligo, concentration not stated

GUAGCAUACCGAGGAUAUUCAUAUAACAUGAGGAUCACCCAUGUAAGGCCACAUUAGUGGCCUUGGGAGAAGGCGGAAUGCUAC [Xeonanis - 20 Mod41] (Eterna round: R96, puzzle: Same State NG 2)    63.5 nM
UUAAUGAUGAUAGGAUAUACAUGAGGAAUUCUCGUAGAAGGAUCAUGACAUGAGGAUCACCCAUGUAUCGCUCCGUAGAGCGUA [JL SSNG1 1.14] (Eterna round: R96, puzzle: Same State NG 1)    233 nM
UUCUCAUUUACAUGAGGAUCACCCAUGUUUUUUUGUAGGAAAUAGGAUAUAGGUCUCUCGUUUUACUAGAAGGAUUUCCUUAUU [JR_SSNG3_Sub090] (Eterna round: R96, puzzle: Same State NG 3)    38 nM
GCUCGGCUGAUGGCCCACAUGAGGAUCACCCAUGUGAGUGGGCAGGAUAUCUAGAUUAAGGAUGUAGAGAAGGGCCUACCGAGC [SameState NG3 #35] (Eterna round: R96, puzzle: Same State NG 3)    106 nM

Now turn to the next sequence.
Incoming: Please look up its apparent KD of MS2 coat protein: AUUUUUAAUGCAGGAUAUGAUUAACAUGAGGAUCACCCAUGUGGUGUUGUGAGUAAGGAGAGUGAUCAGAAGGGCAUUUUUUGU [JMF's solution 87] (Eterna round: R96, puzzle: Same State NG 2)
Outgoing: 301 nM
